pKi: −log10 of the molar value.
Hi, quick share: literature pKi data for 5-hydroxytryptamine receptor 6 (Homo sapiens), several sources combined.
Readout: pKi

>>> test_value("C[C@H](Nc1nc(N)nc(NCCOc2ccccc2)n1)c1ccccc1")
"< 6.00"
>>> test_value("Cc1ccc2c(OCCN3CCN(Cc4cccc5cccnc45)CC3)cccc2n1")
"< 5.00"
>>> test_value("C[C@H]1CCCN1C(=O)c1ccc(-c2ccc3c(c2)CCN(CCN2CCCC2)C3=O)cc1")
"< 5.00"
